Each entry below lists one item and its recorded molar heat capacity at constant pressure value.
PROTOCOL_TEXT: molar heat capacity at constant pressure
CONDITIONS_USED: 217.15 K; 101.33 kPa; Crystal; Small sample (50 mg) DSC
Report only the number, with the unit J/K/mol understood.

> print(dat)
                                   compound  unit.string  readout.number
1            OC[C@@H](O)[C@H](O)[C@@H](O)CO      J/K/mol          152.63
2    OC[C@@H](O)[C@@H](O)[C@H](O)[C@H](O)CO      J/K/mol          170.24
3                 OC[C@@H](O)C(O)[C@H](O)CO      J/K/mol          146.17
4  OC[C@H](O)C(O)[C@@H](O)CO [L-(-)-arabitol]      J/K/mol          151.13
5                    OC[C@@H](O)[C@@H](O)CO      J/K/mol          122.09

Query compound follows.
Q: Form field: reported molar heat capacity at constant pressure of O[C@H]1[C@H](O)[C@@H](O)[C@H](O)[C@@H](O)[C@H]1O [cis-1,2,3,5-trans-4,6-cyclohexanehexol]
Ans: 156.37
